Target: recombinant human HDAC6 (Homo sapiens (Human), UniProt Q9UBN7)
Sequence (Q9UBN7 whole entry): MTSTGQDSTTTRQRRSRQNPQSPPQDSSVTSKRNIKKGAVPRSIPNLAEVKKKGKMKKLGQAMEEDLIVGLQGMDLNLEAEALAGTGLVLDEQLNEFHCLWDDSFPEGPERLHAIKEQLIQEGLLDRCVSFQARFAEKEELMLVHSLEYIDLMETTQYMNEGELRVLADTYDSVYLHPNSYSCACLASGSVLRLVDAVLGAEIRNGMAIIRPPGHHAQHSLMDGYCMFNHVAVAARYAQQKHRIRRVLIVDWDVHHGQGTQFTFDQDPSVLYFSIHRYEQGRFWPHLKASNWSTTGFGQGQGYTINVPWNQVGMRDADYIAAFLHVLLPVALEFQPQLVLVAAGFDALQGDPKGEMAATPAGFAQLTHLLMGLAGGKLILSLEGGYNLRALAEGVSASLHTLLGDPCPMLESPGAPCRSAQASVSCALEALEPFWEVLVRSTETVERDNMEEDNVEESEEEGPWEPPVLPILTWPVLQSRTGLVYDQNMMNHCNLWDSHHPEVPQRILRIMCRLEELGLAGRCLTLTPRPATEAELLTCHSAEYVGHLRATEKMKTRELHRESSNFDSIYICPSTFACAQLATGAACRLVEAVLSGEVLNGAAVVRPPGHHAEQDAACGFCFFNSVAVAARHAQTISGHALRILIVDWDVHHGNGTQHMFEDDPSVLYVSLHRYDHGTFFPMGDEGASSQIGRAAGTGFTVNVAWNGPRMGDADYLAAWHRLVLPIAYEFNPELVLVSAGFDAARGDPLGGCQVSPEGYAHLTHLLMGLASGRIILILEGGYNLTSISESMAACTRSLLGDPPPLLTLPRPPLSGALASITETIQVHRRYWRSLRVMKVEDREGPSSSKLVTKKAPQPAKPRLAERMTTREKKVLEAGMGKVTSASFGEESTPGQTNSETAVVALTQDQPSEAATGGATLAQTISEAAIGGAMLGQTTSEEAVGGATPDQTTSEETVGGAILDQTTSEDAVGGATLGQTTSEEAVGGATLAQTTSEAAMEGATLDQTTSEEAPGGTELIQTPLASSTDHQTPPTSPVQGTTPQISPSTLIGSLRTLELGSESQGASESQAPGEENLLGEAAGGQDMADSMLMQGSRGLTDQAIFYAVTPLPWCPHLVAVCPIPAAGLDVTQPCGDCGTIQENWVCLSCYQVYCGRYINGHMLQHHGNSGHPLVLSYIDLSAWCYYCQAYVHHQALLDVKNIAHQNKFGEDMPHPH
Assay: Enzymatic screening, HDAC6 inhibition (fluorogenic FdL_G substrate)
pIC50: −log10 of the molar value.
quantity kind: pIC50

Below, 2 compounds whose answers are already recorded.
compound: CC[C@H](c1ccc(-c2nnc(C(F)F)o2)cc1)n1cc(-c2ccc(N)nc2)nn1 (stereo in doubt)
pIC50: 6.98

compound: Cn1c(N)nc2cc(-c3cn(Cc4ccc(-c5nnc(C(F)F)o5)cn4)nn3)ccc21
pIC50: 8.10

(a) Nc1ccc(-c2nnc(Cc3ccc(-c4nnc(C(F)F)o4)cc3)o2)cn1
(b) CC(=O)Nc1cccc(-c2cn(Cc3c(F)cc(-c4nnc(C(F)F)o4)cc3F)nn2)c1
Ask: Given the listed records, identify the one among a and b with higher pIC50. Refer to your chosen item by its label in the answer.
Reply: b

(I) CC(C)(C)OC(=O)N1CCC2(CC1)C(=O)Nc1ccc(-c3cn(Cc4ccc(-c5nnc(C(F)F)o5)cc4)nn3)cc12
(II) Nc1ccc(-c2noc(Cc3ccc(-c4nnc(C(F)F)o4)cc3)n2)cc1
(III) FC(F)c1nnc(-c2ccc(Cn3cnc(-c4ccc(NC5=NCCN5)cc4)c3)nc2)o1
(IV) Nc1ccc(-c2cn(Cc3cc(F)c(-c4nnc(C(F)F)o4)cc3F)nn2)cn1
Ask: Highest pIC50 first, then in falling order down to the smallest. Please list each label once, in the requested order.
Reply: III, IV, II, I
(III: 7.96, IV: 7.74, II: 7.06, I: 6.82)
